Assay: Qualitative (kinetic/visual) solubility in solvents/media
Assay type: physicochemical
Details: isopropyl alcohol (2-propanol), organic solvent or mixture, thermodynamic from solid, Isopropyl alcohol (2-propanol); read-out: Solubility
MEASUREMENT_TYPE: Solubility

Entry CCC(CC)n1cnc2c(-c3cnc(N)cn3)nc(N3CC4CCC(C3)O4)nc21 [FT-1518-Esylate] , Solubility reported as 10 to 25 mg/mL

====

Test: Intravenous and per oral pharmacokinetics in male Balb/c mice
Type: in vivo
Details: male, Balb/c, mouse, plasma, po, 50 mg/kg, PO dose (50 mg/kg), single dose, male Balb/c mice; read-out: Cmax
MEASUREMENT_TYPE: Cmax (ng/mL)
A number alone suffices; assume ng/mL.

Entry CCC(CC)n1cnc2c(-c3cnc(N)cn3)nc(N3CC4CCC(C3)O4)nc21 [FT-1518-Esylate] , Cmax reported as 8190
